Biological target: UniProt:Q9NPD5
Sequence (Q9NPD5 whole entry): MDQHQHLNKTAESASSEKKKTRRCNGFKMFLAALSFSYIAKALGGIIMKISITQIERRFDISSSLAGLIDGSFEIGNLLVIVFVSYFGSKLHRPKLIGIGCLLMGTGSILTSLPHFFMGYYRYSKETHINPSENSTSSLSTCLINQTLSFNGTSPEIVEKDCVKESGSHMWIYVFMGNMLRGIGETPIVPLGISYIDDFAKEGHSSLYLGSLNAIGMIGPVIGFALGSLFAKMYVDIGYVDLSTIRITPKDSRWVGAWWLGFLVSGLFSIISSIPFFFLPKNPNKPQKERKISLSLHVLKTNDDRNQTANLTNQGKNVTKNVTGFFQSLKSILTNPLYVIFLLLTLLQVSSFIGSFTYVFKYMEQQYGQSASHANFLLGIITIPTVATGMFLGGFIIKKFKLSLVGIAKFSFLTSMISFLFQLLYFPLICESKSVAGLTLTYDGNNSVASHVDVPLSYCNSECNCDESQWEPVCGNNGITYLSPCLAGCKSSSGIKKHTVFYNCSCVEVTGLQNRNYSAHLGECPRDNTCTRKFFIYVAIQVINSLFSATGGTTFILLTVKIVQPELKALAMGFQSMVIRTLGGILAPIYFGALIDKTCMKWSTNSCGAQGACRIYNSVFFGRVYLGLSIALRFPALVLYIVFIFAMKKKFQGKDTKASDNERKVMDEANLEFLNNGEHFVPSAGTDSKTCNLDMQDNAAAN
Settings: chinese hamster, cho, 10 µM
A collection of molecules and their measured residual activity

Consider the worked cases shown below.
1. CN1C(C(=O)Nc2ccccn2)=C(O)c2ccccc2S1(=O)=O :: 87.59%
2. CC(=O)Oc1ccc2c(c1OC(C)=O)OC[C@]1(O)Cc3c(cc(OC(C)=O)c(OC(C)=O)c3OC(C)=O)[C@H]21 :: 111.5%
3. COC(=O)/C(C)=C\CC12OC(C)(C)C3CC(C=C4C(=O)c5c(OC)c6c(c(CC=C(C)C)c5OC431)OC(C)(CCC=C(C)C)C=C6)C2=O (configuration not stated) [DIMETHYL GAMBOGATE] :: 62.06%
4. COc1cc(OC)c2ccc(=O)oc2c1 :: 105.5%
5. CC[C@@H](C(=O)[C@@H](C)[C@@H](O)[C@H](C)CCc1ccc(C)c(O)c1C(=O)[O-])[C@H]1O[C@](CC)([C@H]2CC[C@](O)(CC)[C@H](C)O2)C[C@@H]1C.[Na+] [LASALOCID A SODIUM] :: 6.678%
6. Oc1cccc(O)c1 :: 104.2%

Consider now this further molecule.
// recorded residual activity for CC(=O)OCC(=O)[C@@]1(O)CC[C@H]2[C@@H]3CCC4=CC(=O)CC[C@]4(C)[C@H]3[C@@H](O)C[C@@]21C [HYDROCORTISONE ACETATE] : 91.1%

// provenance: ChEMBL document CHEMBL3039007
